- SYSTEM_UNDER_TEST: UniProt:P34913
- Sequence (P34913 1-555): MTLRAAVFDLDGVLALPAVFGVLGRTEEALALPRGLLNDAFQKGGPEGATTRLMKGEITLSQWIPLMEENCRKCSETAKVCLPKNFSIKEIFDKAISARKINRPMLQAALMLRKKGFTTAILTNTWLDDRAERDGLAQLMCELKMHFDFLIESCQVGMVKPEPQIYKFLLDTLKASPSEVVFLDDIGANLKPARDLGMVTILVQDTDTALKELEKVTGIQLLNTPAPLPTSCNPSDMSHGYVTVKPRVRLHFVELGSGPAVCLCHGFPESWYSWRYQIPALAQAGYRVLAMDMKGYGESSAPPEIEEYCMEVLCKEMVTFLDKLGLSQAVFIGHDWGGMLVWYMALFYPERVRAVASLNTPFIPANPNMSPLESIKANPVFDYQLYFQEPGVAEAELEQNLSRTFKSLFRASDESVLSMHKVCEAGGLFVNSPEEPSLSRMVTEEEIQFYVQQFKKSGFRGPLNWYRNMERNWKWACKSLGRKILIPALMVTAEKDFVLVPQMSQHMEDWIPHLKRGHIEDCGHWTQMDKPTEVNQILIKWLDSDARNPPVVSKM
EXPERIMENTAL_READOUT: IC50 (µM)

Study these solved cases before continuing.
| MOLECULE | RECORDED_RESULT |
| --- | --- |
| OCc1ccc(O)cn1 [Compound 4, 6-hydroxymethyl-3-pyridinol] | 26.3 |
| OCC1(O)COC(Oc2cc(O)c3c(c2)OC(c2ccc(O)c(O)c2)C(O)C3)C1O (stereo not drawn) [Compound 6, catechin-7-O-β-apiofuranoside] | 16 |

a. O=C1CC(c2ccccc2)Oc2cc(O)c(C3OC(CO)C(O)C(O)C3O)c(O)c21 [Compound 2, pinocembrin 6-C-β-D-glucoside]
b. COc1cc(C2Oc3c(OC)cc(CCCO)cc3C2CO)ccc1OC1OC(C)C(O)C(O)C1O (stereo not shown) [Compound 7, icariside E4]
Hi team, can someone confirm which has the larger IC50: a or b ? Thanks. Mark your answer with the label of the selected entry.
b

====

- SYSTEM_UNDER_TEST: soluble epoxide hydrolase (sEH) (Homo sapiens)
- Construct: purchased Cayman 10011669
- TEST_PROTOCOL: sEH inhibition assay (PHOME fluorescent substrate)
- Format: biochemical
- TEST_CONTEXT: 100 μM compound, 37 °C, after 40 min, mean ± SEM, read-out: Inhibition of compounds on sEH, 100 μM (%)
EXPERIMENTAL_READOUT: inhibition at 100 µM (%)

| MOLECULE | inhibition at 100 µM (%) |
| --- | --- |
| O=C1CC(c2ccccc2)Oc2cc(O)c(C3OC(CO)C(O)C(O)C3O)c(O)c21 [Compound 2, pinocembrin 6-C-β-D-glucoside] | 91.8 |
| O=C1c2c(O)cc(O)cc2OC(c2cc(O)cc(O)c2)C1O (stereo not shown) | 70.7 |
| COc1cc(C2Oc3c(OC)cc(CCCO)cc3C2CO)ccc1OC1OC(C)C(O)C(O)C1O (stereo not shown) [Compound 7, icariside E4] | 55.6 |
| OCC1(O)COC(Oc2cc(O)c3c(c2)OC(c2ccc(O)c(O)c2)C(O)C3)C1O (stereo not drawn) [Compound 6, catechin-7-O-β-apiofuranoside] | 69.8 |
| COc1cc(C2Oc3c(OC)cc(CCCO)cc3C2CO[C@@H]2OC[C@@H](O)[C@H](O)[C@H]2O)ccc1O (stereo partly shown) | 64.8 |
| O=C1OC2Cc3c(O)cc(OC4OCC(O)(CO)C4O)cc3OC2c2ccc(O)c(O)c21 (stereo not shown) | 59.4 |
| OCc1ccc(O)cn1 [Compound 4, 6-hydroxymethyl-3-pyridinol] | 65.9 |
